system: SK-MEL-2 melanoma; assay: NCI tumour cell line growth inhibition, 48 h

Compound | TGI
O=C(N/N=C1\CCc2ccccc2C1)N/N=C1\CCc2ccccc2C1 | > 10 µM
O=C1Nc2ccccc2C1Cc1ccccc1 (stereo unspecified) | > 100 µM
CCC[CH2][Sn]([CH2]CCC)([O]C(=O)c1cccc(F)c1)[O]C(=O)c1cccc(F)c1 | 2.1 µM
CC(=O)Nc1ncc(Sc2ccccc2C(=O)O)s1 | > 100 µM
Cc1c(-c2cc3n(n2)C(c2cccs2)C(C#N)=C(c2ccccc2)N3)c(=O)n(-c2ccccc2)n1C (stereo unspecified) | > 100 µM
Nc1cc(-c2ccccc2)ccc1O | > 100 µM
NC1CC(=O)c2csc(Br)c21 (stereo unspecified) | 31.3 µM
CCCCCCCCCCCC(=O)OCC1OC(n2cc(F)c(=O)[nH]c2=O)C(N)C(OC(=O)CCCCCCCCCCC)C1O (stereo unspecified) | > 100 µM
CC(=O)OCC1OC(n2c(N)c(C#N)c(-c3ccccc3)c(C#N)c2=S)C(OC(C)=O)C(OC(C)=O)C1OC(C)=O (stereo unspecified) | > 100 µM
CCP(=O)(CC)C(Cl)(Cl)C(O)C(C)(C)C (stereo unspecified) | > 100 µM
COC(=O)CC1(CNC(=O)OCc2ccccc2)OCCO1 | > 100 µM
COc1ccc2c(c1)c(C1(c3cn(C)c4ccc(OC)cc34)C(=O)Nc3ccc(F)cc31)cn2C | 9.64 µM
OCCN(CCO)c1ccc2c(C(F)(F)F)cc(C(F)(F)F)nc2n1 | > 100 µM
Cc1ccc2c(c1)NC(=O)CCSSCCC(=O)N2 | > 100 µM
Cc1ccc(/C=C/C(=O)c2c([O-])on[n+]2-c2ccccc2)cc1 | 5.39 µM
COc1cc(N=NN(C)C)c(C(C)c2c3cc(OC)c(OC)cc3cc[n+]2C)cc1OC (stereo unspecified) | 87.5 µM
CCC1CC2CN3CCc4c([nH]c5c(-c6c(OC)ccc7c8c([nH]c67)[C@]6(C(=O)OC)CC7CC(CC)C6N(CC8)C7)c(O)ccc45)[C@](C(=O)OC)(C2)C13 (stereo partly specified) | 47.2 µM
COc1cc(CSc2nc3ccc(C)cc3c(=O)n2Cc2ccccc2)cc(OC)c1OC | 43.1 µM
N#Cc1ccccc1C#C/C=C\C#Cc1ccc(OCCCNC(=O)c2cc3ccccc3[nH]2)cc1 | 44.6 µM
C=CC1CC12C(=O)C1OC2(C)C2C(=O)c3c(ccc4c3ccc3ccccc34)C(=O)C12 (stereo unspecified) | > 100 µM
CCc1c2c(nc3cc4c(cc13)OCO4)-c1cc3c(c(=O)n1C2)COC(=O)[C@@]3(CC)OC(=O)CN | 0.998 µM
O=C(O)C1C2CC3C(OC(=O)C31)C2Br (stereo unspecified) | > 100 µM
C=C1CC(CCCl)(c2ccccc2)OC1=O (stereo unspecified) | > 100 µM
O=C(CN1CCN(C(=O)OCc2ccccc2)CCN(CC(=O)N2CCCCC2)CCN(C(=O)OCc2ccccc2)CC1)N1CCCCC1 | 40.2 µM
O=P(O)(O)C(O)/C=C/c1ccccc1 (stereo unspecified) | > 100 µM
C/C(=N\Nc1ccc([N+](=O)[O-])cc1[N+](=O)[O-])c1ccc2ccccc2n1 | > 100 µM

====

system: NCI/ADR-RES ovarian; experiment: NCI tumour cell line growth inhibition, 48 h
Reported metric: TGI

Compound | Tested on | Result
O=C1C=C(Nc2ccccc2C(=O)CC(=O)C(=O)Nc2cccc(C(F)(F)F)c2)c2ccccc2C1=O | NCI/ADR-RES ovarian | 49.5 µM
COC(=O)c1ccccc1NC(=O)/C(=N\NC(C)(C)C)C(C#N)c1nc(-c2ccc([N+](=O)[O-])cc2)cs1 (centres undefined) | NCI/ADR-RES ovarian | > 100 µM
CC(=O)O[C@H]1CC[C@]2(C)[C@H]3CC[C@@H]4[C@H]5[C@H](C(C)C)CC[C@]5(C(=O)OCC(CO)(CO)N=C(N)N)CC[C@@]4(C)[C@]3(C)CC[C@H]2C1(C)C | NCI/ADR-RES ovarian | 5.17 µM
O=C(CSc1nc(=O)[nH]c2nc[nH]c12)Nc1ccccc1 | NCI/ADR-RES ovarian | > 100 µM

====

system: HS 578T breast; experiment: NCI tumour cell line growth inhibition, 48 h

Compound | GI50
CCN(CC)CCOc1ccc(/C=C2\CC3C4CCC5=CC(=O)CC[C@]5(C)C4CC[C@]3(C)C2=O)cc1OC (some centres undefined) | 2450 nM
COCCOC(=O)C1=C(C)NC2=C(C(=O)CC(c3ccccc3OC)C2)C1c1cccc(O)c1 (centres undefined) | 2040 nM
CCN(CC)c1ccc2c(c1)Oc1nc(N)c(C#N)c(N)c1C2Sc1ccc(SC)cc1 (centres undefined) | 2150 nM
CCC[C@H](N[C@@H]1CCc2cc(F)cc(F)c2C1)C(=O)Nc1cn(C(C)(C)CNCC(C)(C)C)cn1 | 15300 nM

====

tested on: ACHN renal; assay: NCI tumour cell line growth inhibition, 48 h

Compound | Tested on | TGI
O=C1CCCc2c1c1c(n2Cc2ccccc2)-c2ccccc2C1=O | ACHN renal | 30.9 µM
COC(=O)c1ccccc1NC(=O)/C(=N\NC(C)(C)C)C(C#N)c1nc(-c2ccc([N+](=O)[O-])cc2)cs1 (stereo unspecified) | ACHN renal | > 100 µM
COC(=O)CCC(=O)c1c(C)[nH]c(/C=C2\N=C(c3ccc[nH]3)C=C2OC)c1C | ACHN renal | 4.18 µM
COC(OC)c1cccc2c1C1(O)CCC3(CC21)OCCCCO3 (stereo unspecified) | ACHN renal | > 100 µM
N#Cc1c(-c2ccccc2)/c(=C\O)c(=O)n2c1nc1ccccc12 | ACHN renal | > 100 µM
O=C(c1cc(Cl)cc(Cl)c1)N(C(=S)OC12CC3CC(CC(C3)C1)C2)c1ccccc1 | ACHN renal | > 100 µM
COP(C)(=O)/C(Cc1ccccc1)=N\O (stereo unspecified) | ACHN renal | > 100 µM
CN1C(=O)CNC(=O)[C@H](NC(=O)c2nc3ccccc3cc2O)CSSC[C@H]1C(=O)NCCc1nc2ccccc2cc1O | ACHN renal | 38.7 µM
Cc1ccccc1C(=O)Oc1ccc(Oc2ccccc2)cc1 | ACHN renal | > 100 µM
CC(C)(C)c1ccc([I+]c2ccc(C(C)(C)C)cc2)cc1 | ACHN renal | 12.2 µM
COc1ccc(O)c(C(=O)c2ccc(C(=O)O[C@@H]3CCCNC[C@H]3NC(=O)c3ccncc3)cc2)c1F | ACHN renal | > 25 µM
CC1C(c2ccc3c(c2)OCO3)c2cc3c(cc2OC1N1CCCC1)OCO3 (stereo unspecified) | ACHN renal | > 100 µM
O=C1c2ccccc2CC12Cc1cc3c(cc1C2=O)CCC3 (stereo unspecified) | ACHN renal | > 100 µM
O=C1C2C=CC1C1C(=O)OC(=O)C21 (stereo unspecified) | ACHN renal | > 100 µM
O=C(Oc1ccccc1)c1cc2cc(CCl)ccc2oc1=O | ACHN renal | 21.1 µM
NC1CC(=O)c2csc(Br)c21 (stereo unspecified) | ACHN renal | 32.2 µM

====

system: NCI-H460 lung; test: NCI tumour cell line growth inhibition, 48 h
Reported metric: TGI

Compound | Tested on | Reported metric | Result
CN1CCN(c2ccc3nc(-c4cc(C(C)(C)C)c(O)c(C(C)(C)C)c4)[nH]c3c2)CC1 | NCI-H460 lung | TGI | 3.7 µM
COc1ccc(Cc2nc3cc(C(F)(F)F)ccc3n2CCCN(C)C)cc1 | NCI-H460 lung | TGI | 46.7 µM
O=C(O)C1C2CC3C(OC(=O)C31)C2Br (centres undefined) | NCI-H460 lung | TGI | > 100 µM
CC(=O)N1CC2Nc3ccccc3C2CC1CO (centres undefined) | NCI-H460 lung | TGI | > 100 µM
O=C(O)CSc1cc(-c2ccccc2)nc2ccccc12 | NCI-H460 lung | TGI | > 100 µM
Cc1ccc(C(=O)C(C)N)cc1 (centres undefined) | NCI-H460 lung | TGI | > 100 µM
O=C1c2ccccc2-c2nc(-c3cccnc3)cc3c2c1nc1ccccc13 | NCI-H460 lung | TGI | > 100 µM
NNC(=O)c1c(Cl)c(Cl)c(Cl)c(Cl)c1-c1nc2ccccc2[nH]1 | NCI-H460 lung | TGI | 31 µM
COc1cc(OC)c2c(=O)c(O)c(-c3ccc(OC)c(OC)c3)oc2c1 | NCI-H460 lung | TGI | > 100 µM

====

tested on: M19-MEL melanoma; assay: NCI tumour cell line growth inhibition, 48 h

Compound | TGI
CCCCCCCCCCCC(=O)OCC1OC(n2cc(F)c(=O)[nH]c2=O)C(N)C(OC(=O)CCCCCCCCCCC)C1O (stereo not drawn) | > 100 µM
Cc1c(-c2cc3n(n2)C(c2cccs2)C(C#N)=C(c2ccccc2)N3)c(=O)n(-c2ccccc2)n1C (stereo not drawn) | > 100 µM
Nc1ccc(Nc2nc(F)nc(-c3c4ccccc4c4n3CCS4)n2)cc1 | 40.5 µM
